The origin of these recorded values is the supplement of paper PMC8975748.

# Tested on: Saccharomyces cerevisiae BY4741 SeMeCo community
# Assay Remarks: z-score of subpopulation abundance vs DMSO median, subpopulation auxotrophic for UM; higher = larger share of this subpopulation than in DMSO controls
# Condition Context: 10 µM; 24 h; SM minimal medium; subpopulation (auxotrophy): UM
Counter-ions that a name gives are not always drawn.
Each entry below carries its reported z-score of subpopulation abundance.
Measurement Label: z-score of subpopulation abundance

| Compound | Readout Value |
| --- | --- |
| CC(C)COc1ccc(CNC(=O)N(Cc2ccc(F)cc2)C2CCN(C)CC2)cc1 | -0.58 |
| C[C@@H](O)[C@H]1C(=O)N2C(C(=O)[O-])=C(SC3Cn4cnc[n+]4C3)[C@H](C)[C@H]12 (stereo partly specified) | -0.17 |
| COc1ccc(C[C@H](N)C(=O)N[C@H]2[C@@H](O)[C@H](n3cnc4c(N(C)C)ncnc43)O[C@@H]2CO)cc1 [Puromycin 2HCl] | 1.61 |
| CO/N=C(\C(=O)N[C@@H]1C(=O)N2C(C(=O)O)=C(CSc3nc(=O)c(O)nn3C)CS[C@H]12)c1csc(N)n1 [Ceftriaxone Sodium Trihydrate] | -2.42 |
| CC[C@@H](CO)NCCN[C@@H](CC)CO [Ethambutol 2HCl] | 1.23 |
| CN1CCN(C2=Nc3ccccc3Oc3ccc(Cl)cc32)CC1 [Loxapine Succinate] | 0.97 |
| O=C(O)c1cn(C2CC2)c2cc(N3CCNCC3)c(F)cc2c1=O [Ciprofloxacin hydrochloride hydrate] | 0.65 |
| O=C(Nc1cccc(C2=NCCN2)c1)Nc1cccc(C2=NCCN2)c1 [Imidocarb dipropionate] | -0.26 |
| Cc1cc(NS(=O)(=O)c2ccc(N)cc2)no1 [Sulfamethoxazole] | 0.65 |
| O=C(c1ccc(OCCN2CCCCC2)cc1)c1c(-c2ccc(O)cc2)sc2cc(O)ccc12 [Raloxifene HCl] | -0.85 |
| Cc1ccccc1C(OCCN(C)C)c1ccccc1 (stereo unspecified) [Orphenadrine Citrate] | 0.14 |
| CC(=O)OCC1=C(C(=O)O)N2C(=O)[C@@H](NC(=O)Cc3cccs3)[C@H]2SC1 | -0.2 |
| C[N+]1(C)[C@@H]2CC[C@H]1C[C@@H](OC(=O)C(O)c1ccccc1)C2 (stereo partly specified) [Homatropine Methylbromide] | 0.8 |
| N=C(N)NC(=O)c1nc(Cl)c(N)nc1N [Amiloride HCl] | -1.89 |
| CC1=C(C(=O)O)N2C(=O)[C@@H](NC(=O)[C@H](N)C3=CCC=CC3)[C@H]2SC1 [Cephradine monohydrate] | 0.58 |
| N#Cc1ccc2[nH]cc(CCCCN3CCN(c4ccc5oc(C(N)=O)cc5c4)CC3)c2c1 [Vilazodone HCl] | -0.14 |
